These measurements were taken from patent US20210347794A1.

TEST: In vivo pharmacokinetic study in dogs, oral dose of ARI-158
Set-up: species or system male beagle dogs
CONDITION_NOTES: male, beagle, dog, plasma, po, 10 mg/kg, dogs; 10 mg/kg oral dose of ARI-158; Dog 10
OUTCOME_MEASURE: AUC(0-inf) (ng·h/mL)
Write the answer as a number in ng·h/mL, unit excluded.

For this compound ( CCC(=O)c1csc(C(=O)c2cn(P(=O)([O-])[O-])c3cc(F)ccc23)n1.[Na+].[Na+] [ARI-158] ), measured AUC(0-inf) is 1020

* * *

TEST: In vivo pharmacokinetic study in dogs, oral dose of ARI-158
Design: species or system male beagle dogs
CONDITION_NOTES: male, beagle, dog, plasma, po, 10 mg/kg, dogs; 10 mg/kg oral dose of ARI-158; time 0.25 h; Dog 10
OUTCOME_MEASURE: concentration at 0.25 h (ng/mL)
Write the answer as a number in ng/mL, unit excluded.

For this molecule ( CCC(=O)c1csc(C(=O)c2cn(P(=O)([O-])[O-])c3cc(F)ccc23)n1.[Na+].[Na+] [ARI-158] ), measured concentration at 0.25 h is 438

* * *

TEST: In vivo pharmacokinetic study in dogs, oral dose of ARI-158
Design: species or system male beagle dogs
CONDITION_NOTES: male, beagle, dog, plasma, po, 10 mg/kg, dogs; 10 mg/kg oral dose of ARI-158; Dog 10
OUTCOME_MEASURE: AUC(0-t) (ng·h/mL)
Write the answer as a number in ng·h/mL, unit excluded.

For this compound ( CCC(=O)c1csc(C(=O)c2cn(P(=O)([O-])[O-])c3cc(F)ccc23)n1.[Na+].[Na+] ), measured AUC(0-t) is 1020

* * *

TEST: In vivo pharmacokinetic study in dogs, oral dose of ARI-158
Design: species or system male beagle dogs
CONDITION_NOTES: male, beagle, dog, plasma, po, 10 mg/kg, dogs; 10 mg/kg oral dose of ARI-158; Mean
OUTCOME_MEASURE: Cmax

For this compound ( CCC(=O)c1csc(C(=O)c2cn(P(=O)([O-])[O-])c3cc(F)ccc23)n1.[Na+].[Na+] ), measured Cmax is 541 ng/mL

* * *

TEST: In vivo pharmacokinetic study in dogs, oral dose of ARI-158
Parameters: species or system male beagle dogs
CONDITION_NOTES: male, beagle, dog, plasma, po, 10 mg/kg, dogs; 10 mg/kg oral dose of ARI-158; Mean
OUTCOME_MEASURE: AUC(0-inf) (ng·h/mL)
Write the answer as a number in ng·h/mL, unit excluded.

For this compound ( CCC(=O)c1csc(C(=O)c2cn(P(=O)([O-])[O-])c3cc(F)ccc23)n1.[Na+].[Na+] [ARI-158] ), measured AUC(0-inf) is 791

* * *

TEST: In vivo pharmacokinetic study in dogs, oral dose of ARI-158
Parameters: species or system male beagle dogs
CONDITION_NOTES: male, beagle, dog, plasma, po, 10 mg/kg, dogs; 10 mg/kg oral dose of ARI-158; Dog 12
OUTCOME_MEASURE: AUC(0-inf) (ng·h/mL)
Write the answer as a number in ng·h/mL, unit excluded.

For this compound ( CCC(=O)c1csc(C(=O)c2cn(P(=O)([O-])[O-])c3cc(F)ccc23)n1.[Na+].[Na+] ), measured AUC(0-inf) is 676

* * *

TEST: In vivo pharmacokinetic study in dogs, oral dose of ARI-158
Design: species or system male beagle dogs
CONDITION_NOTES: male, beagle, dog, plasma, po, 10 mg/kg, dogs; 10 mg/kg oral dose of ARI-158; time 2 h; Mean
OUTCOME_MEASURE: concentration at 2 h
Note to self: number, then unit, no commentary.

For this compound ( CCC(=O)c1csc(C(=O)c2cn(P(=O)([O-])[O-])c3cc(F)ccc23)n1.[Na+].[Na+] [ARI-158] ), measured concentration at 2 h is 129 ng/mL

* * *

TEST: In vivo pharmacokinetic study in dogs, oral dose of ARI-158
Design: species or system male beagle dogs
CONDITION_NOTES: male, beagle, dog, plasma, po, 10 mg/kg, dogs; 10 mg/kg oral dose of ARI-158; time 4 h; Dog 12
OUTCOME_MEASURE: concentration at 4 h (ng/mL)
Write the answer as a number in ng/mL, unit excluded.

For this compound ( CCC(=O)c1csc(C(=O)c2cn(P(=O)([O-])[O-])c3cc(F)ccc23)n1.[Na+].[Na+] ), measured concentration at 4 h is 69.8

* * *

TEST: In vivo pharmacokinetic study in dogs, oral dose of ARI-158
Design: species or system male beagle dogs
CONDITION_NOTES: male, beagle, dog, plasma, po, 10 mg/kg, dogs; 10 mg/kg oral dose of ARI-158; Dog 11
OUTCOME_MEASURE: half-life (min)
Write the answer as a number in min, unit excluded.

For this compound ( CCC(=O)c1csc(C(=O)c2cn(P(=O)([O-])[O-])c3cc(F)ccc23)n1.[Na+].[Na+] ), measured half-life is 39.2

* * *

TEST: In vivo pharmacokinetic study in dogs, oral dose of ARI-158
Parameters: species or system male beagle dogs
CONDITION_NOTES: male, beagle, dog, plasma, po, 10 mg/kg, dogs; 10 mg/kg oral dose of ARI-158; time 0.5 h; Dog 12
OUTCOME_MEASURE: concentration at 0.5 h (ng/mL)
Write the answer as a number in ng/mL, unit excluded.

For this molecule ( CCC(=O)c1csc(C(=O)c2cn(P(=O)([O-])[O-])c3cc(F)ccc23)n1.[Na+].[Na+] ), measured concentration at 0.5 h is 178

* * *

TEST: In vivo pharmacokinetic study in dogs, oral dose of ARI-158
Design: species or system male beagle dogs
CONDITION_NOTES: male, beagle, dog, plasma, po, 10 mg/kg, dogs; 10 mg/kg oral dose of ARI-158; time 0.5 h; Dog 11
OUTCOME_MEASURE: concentration at 0.5 h (ng/mL)
Write the answer as a number in ng/mL, unit excluded.

For this molecule ( CCC(=O)c1csc(C(=O)c2cn(P(=O)([O-])[O-])c3cc(F)ccc23)n1.[Na+].[Na+] ), measured concentration at 0.5 h is 561

* * *

TEST: In vivo pharmacokinetic study in dogs, oral dose of ARI-158
Parameters: species or system male beagle dogs
CONDITION_NOTES: male, beagle, dog, plasma, po, 10 mg/kg, dogs; 10 mg/kg oral dose of ARI-158; Dog 11
OUTCOME_MEASURE: Tmax (min)
Write the answer as a number in min, unit excluded.

For this compound ( CCC(=O)c1csc(C(=O)c2cn(P(=O)([O-])[O-])c3cc(F)ccc23)n1.[Na+].[Na+] ), measured Tmax is 30

* * *

TEST: In vivo pharmacokinetic study in dogs, oral dose of ARI-158
Design: species or system male beagle dogs
CONDITION_NOTES: male, beagle, dog, plasma, po, 10 mg/kg, dogs; 10 mg/kg oral dose of ARI-158; Dog 10
OUTCOME_MEASURE: Tmax (min)
Write the answer as a number in min, unit excluded.

For this molecule ( CCC(=O)c1csc(C(=O)c2cn(P(=O)([O-])[O-])c3cc(F)ccc23)n1.[Na+].[Na+] [ARI-158] ), measured Tmax is 30

* * *

TEST: In vivo pharmacokinetic study in dogs, oral dose of ARI-158
Set-up: species or system male beagle dogs
CONDITION_NOTES: male, beagle, dog, plasma, po, 10 mg/kg, dogs; 10 mg/kg oral dose of ARI-158; Dog 11
OUTCOME_MEASURE: AUC(0-t) (µg·h/mL)
Write the answer as a number in µg·h/mL, unit excluded.

For this molecule ( CCC(=O)c1csc(C(=O)c2cn(P(=O)([O-])[O-])c3cc(F)ccc23)n1.[Na+].[Na+] [ARI-158] ), measured AUC(0-t) is 0.675

* * *

TEST: In vivo pharmacokinetic study in dogs, oral dose of ARI-158
Set-up: species or system male beagle dogs
CONDITION_NOTES: male, beagle, dog, plasma, po, 10 mg/kg, dogs; 10 mg/kg oral dose of ARI-158; time 1 h; Dog 11
OUTCOME_MEASURE: concentration at 1 h (ng/mL)
Write the answer as a number in ng/mL, unit excluded.

For this molecule ( CCC(=O)c1csc(C(=O)c2cn(P(=O)([O-])[O-])c3cc(F)ccc23)n1.[Na+].[Na+] [ARI-158] ), measured concentration at 1 h is 311

* * *

TEST: In vivo pharmacokinetic study in dogs, oral dose of ARI-158
Design: species or system male beagle dogs
CONDITION_NOTES: male, beagle, dog, plasma, po, 10 mg/kg, dogs; 10 mg/kg oral dose of ARI-158; time 0.5 h; Mean
OUTCOME_MEASURE: concentration at 0.5 h

For this compound ( CCC(=O)c1csc(C(=O)c2cn(P(=O)([O-])[O-])c3cc(F)ccc23)n1.[Na+].[Na+] [ARI-158] ), measured concentration at 0.5 h is 508 ng/mL
